- TEST: in vivo
- ASSAY_CONDITIONS: cynomolgus monkey, iv, 0.5 mg/kg
Kindly supply the reported half-life values for the records listed here.
Give bare numbers, in h.

{"columns": ["MOLECULE", "MEASURED_RESULT"],
 "data": [
  ["O=C(O)[C@@H](Cc1cccc(CN(Cc2cccc(C[C@H](C(=O)O)[C@H]3CCNC3)c2)S(=O)(=O)c2cccc(C[C@H](C(=O)O)[C@H]3CCNC3)c2)c1)[C@H]1CCNC1 [Compound 1]", 21]
]}

For the next question, use this molecule.
# query: half-life of entry O=C(O)[C@@H](Cc1cccc(CN(CCc2ccccc2C[C@H](C(=O)O)[C@H]2CCNC2)S(=O)(=O)c2cccc(C[C@H](C(=O)O)[C@H]3CCNC3)c2)c1)[C@H]1CCNC1 [Compound 3]
31.6
